Attribution: patent US10294202B2

test system: foxtail, giant; assay: Test C pre-/postemergence herbicide test; assay type: in vivo, Setaria faberii; conditions: Preemergence, 250 g ai/ha
Source text: […]
attribute.measured: Plant response rating (scale of 0 to 100), Foxtail, Giant
# answer = number (no unit)

These solved cases illustrate the format of a correct answer.
compound="CN1CC(c2ccc(C(F)(F)F)cc2)C(C(=O)Nc2cccc(F)c2F)C1=O (stereo not shown)" recorded_result=100
compound="O=C1NCC(c2cccc(Br)c2)C1C(=O)Nc1ccc(F)c(F)c1F (stereo not shown)" recorded_result=90
compound="O=C1NCC(c2ccc(OC(F)F)cc2)C1C(=O)Nc1cccc(F)c1F (racemic)" recorded_result=90

Now take the following compound into account.
What does the data say about its Plant response rating (scale of 0 to 100), Foxtail, Giant? Entry: CN1CC(c2ccc(F)c(F)c2)C(C(=O)Nc2cccc(F)c2F)C1=O (stereo not shown)
100

----------
tested on: wheat; experiment: Test A pre-/postemergence herbicide test; type: in vivo, Triticum aestivum; conditions: Preemergence, 125 g ai/ha; visual rating on 0 to 100 scale (0 no effect, 100 complete control)
Examples of compounds with documented Wheat plant response rating follow.
# answer = number (no unit)

These solved cases illustrate the format of a correct answer.
compound="O=C1NCC(c2cccc(OC(F)(F)F)c2)C1C(=O)Nc1ccccc1F (stereo not shown)" recorded_result=0
compound="O=C1NCC(c2ccc(C(F)(F)F)cc2)C1C(=O)Nc1cccc(F)c1F (stereo not shown)" recorded_result=0
compound="O=C1NCC(c2ccc3c(c2)OC(F)(F)O3)C1C(=O)Nc1ccccc1F (stereo not shown)" recorded_result=0

Now take the following compound into account.
What does the data say about its Wheat plant response rating? Entry: O=C1NCC(c2ccc(F)c(C(F)(F)F)c2)C1C(=O)Nc1cccc(F)c1F (racemic)
0

----------
tested on: corn; experiment: Test A pre-/postemergence herbicide test; type: in vivo, Zea mays; details: Postemergence, 500 g ai/ha; 0 to 100 scale (0 no effect, 100 complete control)
attribute.measured: Plant response rating, Corn
# answer = number (no unit)

molecule="O=C1NCC(c2ccc(Cl)nc2)C1C(=O)Nc1ccccc1F (centres unmarked) [Compound 41]" recorded_result=0
molecule="O=C1NCC(c2ccc(F)c(C(F)(F)F)c2)C1C(=O)Nc1cccc(F)c1F (racemic) [Compound 77]" recorded_result=70
molecule="O=C1NCC(c2ccc3c(c2)OC(F)(F)O3)C1C(=O)Nc1ccccc1C(F)(F)F (racemic) [Compound 75]" recorded_result=0
molecule="O=C1NCC(c2cc(F)c(F)c(F)c2)C1C(=O)Nc1cccc([N+](=O)[O-])c1 (centres unmarked) [Compound 49]" recorded_result=0
molecule="O=C1NCC(c2ccccc2)C1C(=O)Nc1ccc(Br)cc1F (racemic) [Compound 84]" recorded_result=0
molecule="O=C1NCC(c2ccc(F)c(F)c2)C1C(=O)Nc1cccc(C(F)(F)F)n1 (racemic) [Compound 245]" recorded_result=0
molecule="O=C1NCC(c2cccc(OC(F)(F)C(F)F)c2)C1C(=O)Nc1ccccc1Cl (racemic) [Compound 125]" recorded_result=0
molecule="CC(C)N1CC(c2ccc(F)cc2)C(C(=O)Nc2cccc(F)c2F)C1=O (centres unmarked) [Compound 276]" recorded_result=0
molecule="O=C1NCC(c2ccccc2Cl)C1C(=O)Nc1ccccc1F (racemic) [Compound 88]" recorded_result=0
molecule="O=C1NCC(c2ccc(C(F)(F)F)cc2F)C1C(=O)Nc1ccccc1C(F)(F)F (racemic) [Compound 261]" recorded_result=0

What does the data say about its Plant response rating, Corn? Entry: O=C1NCC(c2ccc(Cl)o2)C1C(=O)Nc1ccccc1F (centres unmarked) [Compound 284]
0

----------
test system: barnyardgrass; assay: Test B flooded paddy test; type: in vivo, Echinochloa crus-galli; conditions: 1000 g ai/ha, Flood; scale of 0 to 100 where 0 is no effect and 100 is complete control
Please assign n whenever Plant response rating, Barnyardgrass is at or above 20, and y whenever it is below.

Known results for compounds:
compound="Cc1c(Cl)cccc1NC(=O)C1C(=O)NCC1c1ccc(F)c(F)c1 (racemic)" assigned_category=n
compound="O=C1NCC(c2cccc(S(F)(F)(F)(F)F)c2)C1C(=O)Nc1ccccc1C(F)(F)F (stereo not drawn)" assigned_category=n

Below 20 on Plant response rating, Barnyardgrass? Entry O=C1NCC(c2ccc(C(F)(F)F)cc2F)C1C(=O)Nc1cccc(F)c1F (racemic)
y

Input O=C1NCC(c2cccc(C(F)(F)F)c2)C1C(=O)Nc1ccc(F)c(F)c1F (stereo not drawn)
y

Input O=C1NCC(c2ccc(F)c(F)c2)C1C(=O)Nc1ccccc1Cl (racemic)
n

----------
test system: oilseed rape; assay: Test D pre-/postemergence herbicide test; assay type: in vivo, Brassica napus; conditions: Postemergence; 250 g ai/ha; Oilseed Rape; scale 0 to 100
Examples of compounds with documented Plant response rating follow.
# answer = number (no unit)

These solved cases illustrate the format of a correct answer.
compound="O=C1NCC(c2ccc(F)c(F)c2)C1C(=O)Nc1cccc(F)c1F (stereo not shown)" test_system="oilseed rape" recorded_result=40
compound="O=C1NCC(c2ccc(C(F)(F)F)cc2)C1C(=O)Nc1cccc(F)c1F (stereo not shown) [Compound 80]" test_system="oilseed rape" recorded_result=60
compound="O=C1NCC(c2ccc(F)c(F)c2)C1C(=O)Nc1ccccc1C(F)(F)F (racemic)" test_system="oilseed rape" recorded_result=20

Now take the following compound into account.
Test system oilseed rape; read-out Plant response rating; what value for O=C1NCC(c2ccc(C(F)(F)F)cc2)C1C(=O)Nc1cccc(F)c1F (racemic) [Compound 202] ?
55

----------
test system: giant foxtail; experiment: Test A pre-/postemergence herbicide test; format: in vivo, Setaria faberii; conditions: Postemergence, 125 g ai/ha; 0 to 100 scale, 0 no effect, 100 complete control
Text: […]
attribute.measured: Plant response rating, Foxtail, Giant

These solved cases illustrate the format of a correct answer.
compound="COc1cc(C2CNC(=O)C2C(=O)Nc2ccc(F)cc2F)ccc1F (racemic) [Compound 131]" recorded_result=50
compound="O=C1NCC(c2cccc(Cl)c2)C1C(=O)Nc1ccccc1F (racemic) [Compound 89]" recorded_result=60
compound="O=C1NCC(c2ccc3ccccc3c2)C1C(=O)Nc1ccccc1F (racemic) [Compound 115]" recorded_result=0
compound="O=C1NCC(c2cccc(C(F)(F)F)c2)C1C(=O)Nc1ccccn1 (racemic) [Compound 110]" recorded_result=80
compound="O=C1NCC(c2ccc(Cl)c(Cl)c2)C1C(=O)Nc1ccccc1F (racemic) [Compound 14]" recorded_result=60

What does the data say about its Plant response rating, Foxtail, Giant? Entry: O=C1NCC(c2ccc(F)cc2)C1C(=O)Nc1ccc(F)c(F)c1F (racemic) [Compound 120]
80

Input O=C1NCC(c2ccc(F)c(F)c2)C1C(=O)Nc1ccccc1OC(F)(F)F (stereo not shown) [Compound 54]
60

----------
Examples of molecules with documented Pigweed plant response rating follow.
tested on: pigweed; test: Test A pre-/postemergence herbicide test; assay type: in vivo, Amaranthus retroflexus; conditions: Preemergence, 125 g ai/ha; visual rating on 0 to 100 scale (0 no effect, 100 complete control)
# answer = number (no unit)

These solved cases illustrate the format of a correct answer.
molecule="O=C1NCC(c2ccc(C(F)(F)F)cc2)C1C(=O)Nc1ccccc1F (stereo not shown) [Compound 79]" recorded_result=80
molecule="O=C1NCC(c2ccc3c(c2)OC(F)(F)O3)C1C(=O)Nc1ccccc1F (stereo not shown) [Compound 63]" recorded_result=0
molecule="O=C1NCC(c2cc(F)c(F)c(F)c2)C1C(=O)Nc1cccc([N+](=O)[O-])c1 (stereo not shown) [Compound 49]" recorded_result=0

What does the data say about its Pigweed plant response rating? Entry: Cc1cccc(C2CNC(=O)C2C(=O)Nc2ccccc2F)c1 (racemic) [Compound 38]
0

----------
tested on: bromegrass, downy; assay: Test D pre-/postemergence herbicide test; type: in vivo, Bromus tectorum; details: Postemergence; 250 g ai/ha; Bromegrass, Downy; scale 0 to 100
attribute.measured: Plant response rating
# answer = number (no unit)

These solved cases illustrate the format of a correct answer.
compound="O=C1NCC(c2ccc(C(F)(F)F)cc2)C1C(=O)Nc1cccc(F)c1F (stereo not shown) [Compound 80]" test_system="bromegrass, downy" recorded_result=20
compound="O=C1NCC(c2ccc(C(F)(F)F)cc2)C1C(=O)Nc1cccc(F)c1F (racemic) [Compound 202]" test_system="bromegrass, downy" recorded_result=15
compound="O=C1NCC(c2ccc(C(F)(F)F)cc2)C1C(=O)Nc1ccccc1F (stereo not shown)" test_system="bromegrass, downy" recorded_result=25

Now take the following compound into account.
What does the data say about its Plant response rating? Entry: O=C1NCC(c2ccc(Cl)c(F)c2)C1C(=O)Nc1cccc(F)c1F (stereo not shown)
0

----------
system: giant foxtail; assay: Test A pre-/postemergence herbicide test; format: in vivo, Setaria faberii; details: Postemergence, 125 g ai/ha; 0 to 100 scale, 0 no effect, 100 complete control
attribute.measured: Plant response rating, Foxtail, Giant
# answer = number (no unit)

molecule="O=C1NCC(c2ccccc2)C1C(=O)Nc1ccc(Br)cc1F (racemic)" test_system="giant foxtail" recorded_result=0
molecule="O=C1NCC(c2ccc(F)c(C(F)(F)F)c2)C1C(=O)Nc1cccc(F)c1F (racemic)" test_system="giant foxtail" recorded_result=80
molecule="Cc1ccc(C2CNC(=O)C2C(=O)Nc2ccc(F)cc2F)cc1F (racemic)" test_system="giant foxtail" recorded_result=40
molecule="O=C1NCC(c2ccccc2)C1C(=O)Nc1ccccc1Cl (racemic)" test_system="giant foxtail" recorded_result=0
molecule="O=C1NCC(c2ccc3ccccc3c2)C1C(=O)Nc1cccc(F)c1F (racemic)" test_system="giant foxtail" recorded_result=0

What does the data say about its Plant response rating, Foxtail, Giant? Entry: O=C1NCC(c2ccc(Cl)c(Cl)c2)C1C(=O)Nc1ccccc1OC(F)(F)F (racemic)
0

Input O=C1NCC(c2ccc(F)c(F)c2)C1C(=O)Nc1cccc(C(F)(F)F)c1 (racemic)
0

Input O=C1NCC(c2cc(F)c(F)cc2F)C1C(=O)Nc1cccc(F)c1F (centres unmarked)
80
